These measurements were taken from the Immune Epitope Database (IEDB).

Molecular target: HLA-A*01:01
Assay: IEDB peptide-MHC binding, purified MHC/direct/fluorescence; filed as Kd, often an IC50 or EC50 that approximates it; bounds were set here for any values at or beyond the usual limits of such assays
Conditions: source organism: Marburg virus - Musoke, Kenya, 1980
Measure name: Kd

Ordered residues: KLDFIRNTK
Measure name: Kd
Value measured: ≥ 20 µM

---

Catalogue of Kd readings, one per entry.
Target: HLA-A*02:01
Experiment: IEDB peptide-MHC binding, purified MHC/competitive/radioactivity; filed as Kd, often an IC50 or EC50 that approximates it; bounds were set here for any values at or beyond the usual limits of such assays
Details: source organism: Dengue virus 2 Jamaica/1409/1983
Measure name: Kd (nM)

Ordered residues: FLIDGPETA
Output unit: nM
Value measured: 17.4
--
Ordered residues: TLTAALLLLV
Output unit: nM
Value measured: 10.8
--
Ordered residues: MMATIGIAL
Output unit: nM
Value measured: 5.19
